Cited source: ChEMBL document CHEMBL3045901

Test system: Setaria faberi
Experiment: Herbicidal activity against Setaria faberi (Giant Foxtail) assessed as weed control at 30 g/ha under greenhouse measured after 21 days by post-emergence test
Format: functional
Recorded Activity split into classes lower level: < 60%; middle level: ≥ 60% and < 90%; upper level: ≥ 90%

Example results:
CCc1cc(CC)c(C2C(=O)N3CCOCCN3C2=O)c(CC)c1 :: lower level
C#Cc1cc(C)cc(CC)c1C1C(=O)N2CCOCCN2C1=O :: upper level
CCc1cc(C)cc(CC)c1C1C(=O)N2CCOC(CC)CN2C1=O (stereo not drawn) :: lower level

Please indicate the class for CCc1cc(C)cc(CC)c1C1C(=O)N2CCCOCN2C1=O (stereo not drawn) based on its Activity.
lower level

Input CCc1cc(I)cc(CC)c1C1C(=O)N2CCOCCN2C1=O ; output its category
lower level

Assign a category based on measured Activity for CCc1cc(-c2ccccc2)cc(CC)c1C1C(=O)N2CCOCCN2C1=O and give only the class name.
middle level

Which of the defined bands does the recorded Activity of CCc1cc(C)cc(CC)c1C1C(=O)N2C[C@H]3COC[C@H]3CN2C1=O (stereo partly drawn) sit within?
upper level

Record CCc1cc(C)cc(CC)c1C1C(=O)N2C(C)COCC(C)N2C1=O (stereo not drawn) — which class?
middle level

Bin this entry: Cc1cc(C)c(C2C(=O)N3CCOCCN3C2=O)c(C(C)C)c1
lower level

Determine which band this compound sits in: Cc1cc(C)c(C2C(=O)N3CCOCCN3C2=O)c(C)c1
lower level

Please let me know in which category the item CCc1cc(C)cc(CC)c1C1C(=O)N2C[C@H]3CC[C@@H](CN2C1=O)O3 (stereo partly drawn) belongs.
middle level

Please indicate the class for Cc1cc(C)c(C2C(=O)N3CCOCCN3C2=O)c(Br)c1 based on its Activity.
lower level

Class? Entry: CCc1cc(C)cc(OC)c1C1C(=O)N2CCOCCN2C1=O
upper level
